# tgt: KRas^WT-GDP (recombinant) (human, UniProt P01116-2 2-169, GDP bound)
# experiment_notes: SPR, IgG captured by anti-human IgG1 Fc, KRas in solution, 25 C, 1:1 Langmuir fit
In this section, each of the binders is paired with its reported Kd.
Numbers only here, please. The scale is nM.

Inquiry: Please give the measured Kd for this binder: anti-KRas antibody 1E5 (antibody, V domains shown, also called Class II anti-KRas antibody) VH: EVQLVESGGGLVKPGGSLRLSCAASGFTFSSYSMNWVRQAPGKGLEWVSSISSSSSYIYYADSVKGRFTISRDNAKNSLYLQMNSLRAEDTAVYYCARTNNYGYRYFDYWGQGTLVTVSS VL: LTQDPAVSVALGQTVRITCQGDSLRSYYASWYQQKPGQAPVLVIYGKNNRPSGIPDRFSGSSSGNTASLTITGAQAEDEADYYCNSRDSSGNHWVFGGGTKLTVL
Reply text: 411

Inquiry: Kd for anti-KRas antibody 2A3 (antibody, human IgG1, V domains shown, also called Class II anti-KRas antibody) VH: EVQLVESGGGLVKPGGSLRLSCAASGFTFSSYSMNWVRQAPGKGLEWVSSISSSSSYIYYADSVKGRFTISRDNAKNSLYLQMNSLRAEDTAVYYCARATSSGYYYFDYWGQGTLVTVSS VL: ELTQDPAVSVALGQTVRITCQGDSLRSYYASWYQQKPGQAPVLVIYGKNNRPSGIPDRFSGSSSGNTASLTITGAQAEDEADYYCNSRDSTDNHLWVFGGGTKLTVL ?
Reply text: 71

Inquiry: Field request: Kd | item: anti-KRas antibody 1A5 (antibody, human IgG1, V domains shown, also called Class I anti-KRas antibody; 1A5-488 (labelled form in FACS)) VH: EVQLVESGGGLVQPGGSLRLSCAASGFTFSSYSMNWVRQAPGKGLEWVSYISSSSSTIYYADSVKGRFTISRDNAKNSLYLQMNSLRAEDTAVYYCARGFYVRNWFDPWGQGTLVTVSS VL: AIQMTQSPSSLSASVGDRVTITCRASQGIRNDLGWYQQKPGKAPKLLIYAASSLQSGVPSRFSGSGSGTDFTLTISSLQPEDFATYYCLQDHDYPLTFGQGTKVEIK
Reply text: 159

Inquiry: What does the record list as Kd for anti-KRas antibody 3A12 (antibody, V domains shown, also called Class II anti-KRas antibody) VH: EVQLVESGGGLVQPGGSLRLSCAASGFTFSSYSMNWVRQAPGKGLEWVSYISSSSSTIYYADSVKGRFTISRDNAKNSLYLQMNSLRAEDTAVYYCARGKGIVGWGFFGMDVWGQGTLVTVSS VL: SVLTQPPSVSAAPGQKVTISCSGSSSNIGNNYVSWYQQLPGTAPKLLIYDNNKRPSGIPDRFSGSKSGTSATLGITGLQTGDEADYYCGTWDNSLSVWVFGGGTKLTVL ?
Reply text: 24

Recorded values, source patent US20220112308A1.
